test system: A549-CANX-COX4; assay: phenotypically active (imaging signature differs from DMSO and reproducible) at any of 0.3-9 uM (binary (1 = active, 0 = inactive)); higher = active; conditions: treatment time: 24 h
Property: phenotypically active

[
  {
    "Compound": "N#C/C(=C/c1ccc(O)c(O)c1)C(=O)NCCCCc1ccccc1",
    "Obs Value": 1
  },
  {
    "Compound": "COc1cc2nc(N3CCN(C(=O)c4ccco4)CC3)nc(N)c2cc1OC [prazosin]",
    "Obs Value": 0
  },
  {
    "Compound": "CCCNC(=O)NS(=O)(=O)c1ccc(Cl)cc1 [chlorpropamide]",
    "Obs Value": 0
  },
  {
    "Compound": "COc1ccc(S(=O)(=O)N(C(C)=O)c2ccccc2/C=C/c2cc[n+]([O-])cc2)cc1",
    "Obs Value": 1
  },
  {
    "Compound": "CC(=C/[C@@H](C)C(=O)c1ccc(N(C)C)cc1)/C=C/C(=O)NO [Trichostatin A]",
    "Obs Value": 1
  },
  {
    "Compound": "Cc1ccc(NC2=CC(=O)c3sc(C)nc3C2=O)cc1 [Ryuvidine]",
    "Obs Value": 0
  },
  {
    "Compound": "CCOC(=O)C1=C(C)NC(=S)N[C@H]1c1cccc(O)c1 [Monastrol]",
    "Obs Value": 0
  },
  {
    "Compound": "COc1c(OC2OC(CO)[C@@H](O)[C@H](O)[C@H]2O)cc2c(c1OC)-c1ccc(OC)c(=O)cc1[C@@H](NC(C)=O)CC2 (stereo partly specified) [Colchicoside]",
    "Obs Value": 0
  },
  {
    "Compound": "Cc1noc(C)c1-c1cc(O)cc(C(O)c2ccccc2)c1 (stereo unspecified)",
    "Obs Value": 1
  },
  {
    "Compound": "C[C@H]1[C@H](C)CC[C@]2(C(=O)O[C@@H]3O[C@H](CO[C@@H]4O[C@H](CO)[C@@H](O[C@@H]5O[C@@H](C)[C@H](O)[C@@H](O)[C@H]5O)[C@H](O)[C@H]4O)[C@@H](O)[C@H](O)[C@H]3O)CC[C@]3(C)C(=CC[C@@H]4[C@@]5(C)C[C@@H](O)[C@H](O)[C@@](C)(CO)[C@@H]5CC[C@]43C)[C@H]12 [Asiaticoside]",
    "Obs Value": 0
  },
  {
    "Compound": "CCOP(=O)(OCC)C(=Cc1cc(C(C)(C)C)c(O)c(C(C)(C)C)c1)P(=O)(OCC)OCC",
    "Obs Value": 0
  },
  {
    "Compound": "COC(=O)/C=C/c1cccc(N(Cc2ccc(-c3ccc(N(C)C)cc3)cc2)C(=O)C2CCCCC2)c1 [fexaramine]",
    "Obs Value": 0
  },
  {
    "Compound": "C[C@@H](c1ncncc1F)[C@](O)(Cn1cncn1)c1ccc(F)cc1F [voriconazole]",
    "Obs Value": 0
  },
  {
    "Compound": "O=C(Nc1c(Cl)cncc1Cl)c1ccc(OC(F)F)c(OCC2CC2)c1 [roflumilast]",
    "Obs Value": 0
  },
  {
    "Compound": "CCn1c(=O)n([C@H]2CCCN(c3nccc(-c4cc5ccccc5o4)n3)C2)c2ccccc21",
    "Obs Value": 1
  },
  {
    "Compound": "Cc1c(-c2ccccc2)oc2c(C(=O)OCCN3CCCCC3)cccc2c1=O [flavoxate]",
    "Obs Value": 0
  }
]
